- Experiment: SUPPLEMENTARY: Lyophilisation Solubility Assay (LYSA)
- Assay type: physicochemical
- Assay conditions: read-out: Kinetic_solubility
Cut-off 50 µg/mL on solubility kinetic, inclusive. At or above means t; below means f.

1. CCn1cc(S(=O)(=O)c2cc(Cl)ccc2OC)c2cc(C(=O)Nc3ccc(C(=O)O)cc3)ccc21; f
2. COc1ccc(Cl)cc1S(=O)(=O)N[C@@H]1CCCN(C(=O)COc2ccccc2)C1; t
3. COc1ccc(Cl)cc1S(=O)(=O)N(C)c1cc(C(=O)Nc2ncc(CC(=O)O)s2)cc2c1OCO2; t
4. COc1ccc(Cl)cc1S(=O)(=O)c1nn(CCC(=O)O)c2ccc(C(=O)Nc3ccccc3)cc12; f
5. O=C(COc1ccccc1)N1CCCC[C@@H]1c1nc(-c2ccc3[nH]c(=O)[nH]c3c2)no1; f

Task item: Confirm if solubility kinetic reported for the molecule `CCN(CC)C(=O)c1cncc(-c2noc([C@H]3CCCCN3C(=O)COc3ccccc3)n2)c1` is 50 µg/mL or above.
Reply: t
